So I've got a bunch of sequences here, and I need their apparent Kd values.
# Tested on: MS2 coat protein
# assayOverview: apparent Kd, MS2 coat protein; higher = weaker binding; RNA-MaP array; FMN 200 µM where present
# testContext: designed as: OFF switch for flavin mononucleotide; no ligand
One number for each entry, in nM.

sequenceInput | unitsOfMeasure | apparent Kd
UGCGGUAGAGGAUAUACGUAGAAGUAGAUUCAUGUAAAACUACAUGAGGAUCACCCAUGUAGAAGGCUAUCGCU | nM | 22.9

I would be grateful if you could provide apparent Kd for each of the following entries.
1. GAGGUACGAGGAUAUACAUAGAUACAGACACAUGUUCAAGUACAUGAGGAUCACCCAUGUAGAAGGCGUAUAUC
2. UUGGUAUUUGUAGGAUAUCUGUCGCCACCGUGUGGAGAAGGACGAACAUGAGGAUCACCCAUGUAUCAUGGUGUGGGCUUUGCU
3. GUGGUACAUGAGGAUCACCCAUGUUAGGAUAUCGCGUGAGGUUUUACUUCCGCACACACGAGAAGGGACGUCUU
4. UCGUUGUCAGGAUAUCGUUAAUUUAAUUGUUUGUAUUAGUUCGAGAAGGGACAUGAGGAUCACCCAUGUUUGUU
5. CAAAAGCGAGGAUAUACAUGAGGAUCACCCAUGUGGCAGCCAUGUAGGAGUGACGUCGGUAGAAGGCGCACCCU
6. GCACUGGAUGUAGGAUAUCAGGACGAUAAGUCCUGAGAAGGACAUGAGGAUCACCCAUGUCUCAAGAAACCAGUGCAUAAUAUA

Result:
[30.1, 302, 32.9, 57.2, 99.8, 13]

====

# Tested on: MS2 coat protein
# assayOverview: apparent Kd, MS2 coat protein; higher = weaker binding; RNA-MaP array; FMN 200 µM where present
# testContext: ligand present: flavin mononucleotide; designed as: ON switch for flavin mononucleotide
measurementName: apparent Kd (nM)
Numbers only, in nM.

Quick batch: apparent Kd for everything below.
1. CUGCAACAUGAGGAUCACCCAUGUAACCCAAUUAUAGGAUAUGUGAUGGUGAUCGACAUGACAGAAGGGUGAUUGG
2. UGGUACUAGGGAGGAUAUGGGAAGAUACAUGAGGAUCACCCAUGUUUAAGAAUGCCGAGAGGCAACUAGAAGGCCGUAGUACCU
3. GGGUACAUCGGAGGAUAUCAUGUAAAUACAUGAGGAUCACCCAUGUCGAUGGAGACAUCGAAGAUUGAGAAGGCCGAUGUACCG
4. GCAUGCGUUCGAGGAUAUCGGUGAGAAACGGAACGAGAAGGCGAUCGAAUGUCUCAUCUUAUGAACAUGAGGAUCACCCAUGUA
5. CUGCUCGUAGAGAAGGCGUGGGCACAUGAGGAUCACCCAUGUCGCAGUACGAGGAUAUUUGCCGGCCCGCCCAAAAUGGCGCGA
6. AAGUUUGUACGAGGAUAUCAGUUGUUUCUAAAUUCAACAUGAGGAUCACCCAUGUAGCAAUGGAGUGAGAAGGCGUGUGGGCAA

Result:
1. 149
2. 20.3
3. 5.6
4. 83.2
5. 96.2
6. 240

====

# Test system: MS2 coat protein
# assayOverview: apparent Kd, MS2 coat protein; higher = weaker binding; RNA-MaP array; FMN 200 µM where present
# testContext: designed as: ON switch for flavin mononucleotide; no ligand
So basically every entry gets a class from its apparent Kd, ranges being band 1 = under 50 nM, band 2 = from 50 nM up to 200 nM, band 3 = 200 nM and over

sequenceInput | labelClass
AAGACACAUCUAGGAUAUGGUGAUGCUCAGAACACAUGAGGAUCACCCAUGUAGCUUGUGUAUAAUCAGAAGGAGAACCGUGUA | band 1
GUAGCAUACCGAGGAUAUUCAUACCGUAAACGGACAUGAGGAUCACCCAUGUGGCGAAAGCCUUGGGAGAAGGCGGAAUGCUAC | band 3
GGGUACAUCGGAGGAUAUCAUGUAAGUACAUGAGGAUCACCCAUGUCGAUGGAGACAUCGGAGAUUGAGAAGGCCGAUGUACCG | band 2
AACAUGAGGAUCACCCAUGUCCCACCAGAAGGCUGGCGGUCGUGAGAAAGGCCACGACAAAUAACAGAGGAUAUGGUGAAUGCA | band 2
GAAGCACACAUUAACAUGAGGAUCACCCAUGUCAAAAGACGUGAGGAUAUGGAUCUGAAGAAGAUCCAGAAGGCACUGUGCUAA | band 1

Q: Would you mind sorting `GUGCCUUAUGAGAAGGCGAUCAUGAAACAUGAUCGAGGAUAUCAUGAAAACAUGAGGAUCACCCAUGUAUGGGUAUUAUGGUAC` into the appropriate category?
Result: band 2

Q: Record `UAAACAUGAGGAUCACCCAUGUUAUGAUCGGUUGAUGAAAGUGAGGAUAUACUUAAUUUUAUGGAGUAGAAGGCACUGGGUUCU` — which class?
Result: band 1

Q: Which class is correct for the following sequence? `UUGGACGUCGUAGGAUAUGUAGGAUAUUCUUACAUGAGGAUCACCCAUGUUGACAUGGAAGAAGGACAGAAGGACGAUGUCCAU`
Result: band 2

Q: Band for `GGGUACUUCGGAGGAUAUCAUGUAAAUACAUGAGGAUCACCCAUGUCGAUGGAGACAUCGGAGAUUGAGAAGGCCGAUGUACCG` ?
Result: band 2

Q: Hey, which category is `GGUCCAUCAUGAGGAUAUGGCACCUUAUUGGUGCCAGAAGGCAUGUCUCUUGACAUGAGGAUCACCCAUGUAAUAAAUUGGACC` in, do you know?
Result: band 3

Q: Quick check: band for `CCCUUUAGAAAAGGGACAUGAGGAUCACCCAUGUAGGCUGCACAGGAUAUCGAUCGGAGGCGGUACGAGAAGGGUGAUGUCAUU`
Result: band 2

Q: Place this sequence in its band: `UGGUACAUGGGAGGAUAUGGGUUGAUAACAUGAGGAUCACCCAUGUUAAAUAUGCCUCAUGGCAACUAGAAGGCCCAUGUACCU`
Result: band 3

====

# System: MS2 coat protein
# assayOverview: apparent Kd, MS2 coat protein; higher = weaker binding; RNA-MaP array
# testContext: ligand present: flavin mononucleotide; designed as: OFF switch for flavin mononucleotide
measurementName: apparent Kd
Field: value (include unit after the number)

Below, 3 sequences whose answers are already recorded.
sequenceInput | apparent Kd
UACAAAGAAUAGGAUAUCGAGAGGUAAUUUGGGCGAGAAGGAUUCACAUGAGGAUCACCCAUGUAGGCGGAUCU | 40.9 nM
CUGAGCAAAGGAUAUACUAAUUGUGAGUGACCCAGUUAACGACAUGAGGAUCACCCAUGUAGAAGGUUGGAACA | 24.6 nM
ACCAUCAUUGUUAGGAUAUGUAGAGUACUGAGGCUACAGAAGGAACAUGAGGAUCACCCAUGUGUUUCGGUGUA | 126 nM

Q: Give the reported apparent Kd for this sequence. `GCAGUGCGUGAGGAUAUGUGAGUGAACACACACACAGAAGGCACAACAUGAGGAUCACCCAUGUUCCUGGUGCC`
Result: 7.95 nM

====

# System: MS2 coat protein
# assayOverview: apparent Kd, MS2 coat protein; higher = weaker binding; RNA-MaP array; FMN 200 µM where present
# testContext: designed as: OFF switch for flavin mononucleotide; no ligand
measurementName: apparent Kd

sequenceInput | measurementName | value
GCACUGGAUGUAGGAUAUCAGGACGAUAAGUCCUGAGAAGGACAUGAGGAUCACCCAUGUAAACCUCACCAGUGCUAUAAUAUA | apparent Kd | 15.5 nM
CUAUUACGAGGAUAUGAUUUAAAUAACAUGAGGAUCACCCAUGUUUUUACGUUAUUUUAUUUAGAAGGCGUAUAGU | apparent Kd | 41.8 nM
GGGCAAUUAGGAUAUACAUGAGGAUCACCCAUGUGGAAGCCCGGACAGGUAAUCCACUGUAGAAGGGAUUGCGG | apparent Kd | 14.8 nM
CCCACGAAAGUCGAACGAUGUAGCAGAAGGACAUGAGGAUCACCCAUGUCAGCUGUAACAGCCAUGUAGGAUAUGCUACAUCCC | apparent Kd | 5.24 nM
GCAGUACGCCUGGCAAUUUGCAAGCAGGAUAUCAGGCACCGUGAGACAUGAGGAUCACCCAUGUCUGAGAAGGGCUGGAGUUGC | apparent Kd | 9.68 nM
GUUUCACAUGAGGAUCACCCAUGUGAGGAUAUGGAUUCGCUGGCCGUAGCCAGUGGAUCCAGAAGGCGCAUGAU | apparent Kd | 35.7 nM
UUUAUGAAGAUUCGUCAAUACAGUUAGGAUAUGAGAGACAUGAGGAUCACCCAUGUGCAUGUUGAUUAGAAGGAACAAUUAUCU | apparent Kd | 19.1 nM
GUAGUGUAUGUAGGAUAUGUGAAGCAAAGCUUCACAGAAGGACAUGAGGAUCACCCAUGUAUUACAGUCAGCAAUCUGACUGUU | apparent Kd | 39.8 nM

Please give apparent Kd for each item listed below.
1. GGCGGUCGGGAGGAUAUUCGGGCUGUUUGGCUUGGAGAAGGCUCGACAUGAGGAUCACCCAUGUUGGUGUUCUU
2. UGGUACAUGAGGAUCACCCAUGUAAGAGCCCUCAUGCGAUGUAGAAGGAUUAUGCGAGUAGUGCAAUAGGAUAUACAUGAGUUU
3. UAAUAAUAAUAAUAAUCCUGCAUACAUGAGGAUCACCCAUGUAAGGAUAUCGUCAGGAAUACUGACGAGAAGGUACAUAGCAGG
4. AUUAUUGGCUAAGGAUAUGGAUACAUGAGGAUCACCCAUGUAUAAUUUGUGAUCAUAUAAAUGAUCCAGAAGGUAGCUGUUUAU
5. CUGACGAUGUAAGGAUAUGCUGAGGAUAACUCAGCAGAAGGUACAUGAGGAUCACCCAUGUAAUAAGAUCAAUAAUAACGUCAG
6. UGCGUGUUAGGAUAUGCCAGCGCUACCUAAGGUAGGCUGUGGUAGAAGGAACAUGAGGAUCACCCAUGUAGGAG
7. GUCAGCUCGUGAGGAUAUACAUCACUGCUUCGGCAGUGUAUUAAGACUACAUGAGGAUCACCCAUGUAGAAGGCACGAGCUGAU

Result:
1. 387 nM
2. 216 nM
3. 15.8 nM
4. 81.6 nM
5. 15.3 nM
6. 111 nM
7. 17.4 nM
